Target: T1, Fc-labeled CD70 antigen
T1 construct: soluble antigen used at 1:100 to stain CAR-T cells; also called detected with the secondary antibody PE-Fc (axis label PE-Fc)
T1 sequence (P32970 whole entry, species assumed, looked up): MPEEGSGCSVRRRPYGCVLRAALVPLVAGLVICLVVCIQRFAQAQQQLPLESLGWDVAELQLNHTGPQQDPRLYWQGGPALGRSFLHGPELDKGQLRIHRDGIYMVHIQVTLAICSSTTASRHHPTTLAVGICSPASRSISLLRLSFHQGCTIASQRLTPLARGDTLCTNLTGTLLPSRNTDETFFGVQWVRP
Test: flow cytometry: CAR-transduced T cells stained with Fc-labeled CD70 antigen (1:100) and secondary antibody PE-Fc; NT control 0.61
Description: The CAR positive rate of the retrovirus-infected T lymphocytes were detected 72 hours after virus infection. […]
Assay metric: CD70 CAR+ (positive rate of the cells) (%)

binder="2A5-BBz (other, also called CD70-2A5-BBz) chimeric antigen receptor chain: EVQLVESGGGLVQAGGSLRLSCAASGSIFSINAMGWYRQAPGKQRELVAAITSGGSTNYADSVKGRFTISRDNAKNTVYLQMNSLKPEDTAVYYCNAGAGRAFPGDYWGQGTQVTVSSTTTPAPRPPTPAPTIASQPLSLRPEACRPAAGGAVHTRGLDFACDIYIWAPLAGTCGVLLLSLVITLYCRFSVVKRGRKKLLYIFKQPFMRPVQTTQEEDGCSCRFPEEEEGGCELRVKFSRSADAPAYQQGQNQLYNELNLGRREEYDVLDKRRGRDPEMGGKPRRKNPQEGLYNELQKDKMAEAYSEIGMKGERRRGKGHDGLYQGLSTATKDTYDALHMQALPPR" units_of_measure=% reported_value=75.8

All figures here come from patent US20250255960A1.
